system: Male C57Bl/6J mice; assay: Marble burying test; format: in vivo; parameters: key: −: No reduction in number of marbles buried; +: Significant reduction in number of marbles buried (P < 0.05 vs vehicle); details: 3 mg/kg (p.o.)
Observation Type: Marbles Buried

Compound: N[C@@H]1COCc2ccccc21 (single isomer, unassigned)
Observation Type: Marbles Buried
Result: −
//
Compound: N[C@H]1COCc2ccc3ccccc3c21 (single isomer, unassigned)
Observation Type: Marbles Buried
Result: −
//
Compound: Cc1ccc2c(c1)[C@H](N)COC2
Observation Type: Marbles Buried
Result: −
//
Compound: N[C@H]1COCc2ccc(F)cc21 (single isomer, unassigned)
Observation Type: Marbles Buried
Result: +
//
Compound: N[C@@H]1COCc2ccc3ccccc3c21 (single isomer, unassigned)
Observation Type: Marbles Buried
Result: +

In the following, a different compound is considered.
get_value(item= Cc1ccc2c(c1)[C@@H](N)COC2 , readout=Marbles Buried) returns −
